These measurements were taken from ChEMBL document CHEMBL1135946.

# experimental-details: Tested for volume of distribution after intravenous administration to Sprague-Dawley rat at dosage of 0.2 mg/kg
# Format: ADME, organism-based
# Design: dose 0.2 mg/kg, route intravenous
# measurement-conditions: in vivo, read-out: Volume of distribution
recorded-endpoint: Vd

| record-smiles | readout-value |
| --- | --- |
| Cc1cc(C(=O)Nc2ccc(-c3ccccc3S(N)(=O)=O)cc2)n(-c2cc3ccccc3cc2F)n1 | 2.6 L/kg |
